// data source = patent US20140303084A1

# Target desc: human Factor IXa (human, UniProt P00740 47-191; P00740 227-461)
# Assay summary: cell-based or functional assay
Square brackets hold non-standard residues; d marks the D form. Primed or numbered codes have the meaning given here. Side chains are listed from the residue outwards. Ends that are not written are not given here. * marks the point of attachment. Biotin = O=C1N[C@H]2[C@H](CS[C@H]2CCCCC(=O)*)N1; PEG2(3) = PEG2 spacer carrying biotin on Lys; NMeL = CN[C@@H](CC(C)C)C(=O)O
Measured EC50 [µM], FXa generation assay by item

Binder	EC50 [µM], FXa generation assay
PRIRTVGPGSRSASGKLTCLASYCWLFATGIA	< 0.5 µM
PRIRSVGPGSRSASGKLTCLASYCWLFWTGIA	< 0.5 µM
RRAPGKLTCLASYCWLFYTGIAHGHPMEHRKS [RRAPGKLTCLASYCWLF YTGIA HGHPMEHRKS]	> 1 µM
RRAPGKLTCLASYCWK([PEG2(3)-Biotin])FWTGIA (not fully specified (C-terminus); printed as RRAPGKLTCLASYCWK(PEG2-Biotin)FWTGIA; cysteine pairing not given here) [RRAPGKLTCLASYCWK(PEG2-Biotin)FWTGIA]	> 1 µM
R[dK][NMeL]TCLASYCWLF (cysteine pairing not given here) [R-k-MeLeu-TCLASYCWLF]	> 1 µM
SKQGRPIAPD[dR]RAAGKLTCLASYCWLFWTGIA (not fully specified; printed as SKQGRPIAPDrRAAGKLTCLASYCWLFWTGIA; cysteine pairing not given here) [SKQGRPIAPDrRAAGKLTCLASYCWLFWTGIA]	< 0.5 µM
CGGSGGRRAPGKLQCLASYCWLFWTGIAC	> 1 µM
[dR]RAPGKLTCLASYCWLFSTGIA (not fully specified (C-terminus); printed as rRAPGKLTCLASYCWLFSTGIA; cysteine pairing not given here) [rRAPGKLTCLASYCWLFSTGIA]	< 0.5 µM
GCSSDKLTARTRHCSMFQPLSV	> 20 µM
RRAPGKLTCLASYCWLFWTGWCRDTASHACDS [RRAPGKLTCLASYCWLF WTGWC RDTASHACDS]	> 1 µM
RRAPGKLTCLASYCWLFWSGIAPQPPNMRPSV [RRAPGKLTCLASYCWLF WSGIA PQPPNMRPSV]	< 0.5 µM
